# credit: paper PMC11542179

# assayed target: MSI1 RRM2 (Homo sapiens, UniProt O43347 104-200)
# Sequence (O43347 104-200): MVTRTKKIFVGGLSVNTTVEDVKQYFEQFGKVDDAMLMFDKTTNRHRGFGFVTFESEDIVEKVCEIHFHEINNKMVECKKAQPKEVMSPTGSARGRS
# measurement description: SPR; 1:1 with mass transport; SPR, 3'-biotinylated RNA immobilized on dextran sensor chip, protein as analyte; running buffer, salt, pH and temperature not in the material
# condition context: protein: recombinant; tags: C-terminal Strep-tag; label: 3'-biotin; linear
endpoint name: Kd (nM)
Kindly answer with a numeric value in nM, unit omitted.

Request: Report Kd for UUGUCAGUUACCCCUU (ssRNA) [RNA-L1a] please.
Result: 123
